tested on: 743489-274-T-PDC complex spheroid growth; test: Anticancer human tumor 743489-274-T-PDC patient-derived renal cell carcinoma cell line growth inhibition [AhR]; conditions: second compound 0.316 µM; first compound 0.00316 µM; hits give low values
The entries below come with measured viability, T/C values attached.
The answer is to be given in %; state only the numeric part.

Some solved entries appear below for comparison.
compound	test-target	viability, T/C [%]
CC[C@@]1(O)C(=O)OCc2c1cc1n(c2=O)Cc2cc3c(CN(C)C)c(O)ccc3nc2-1 + CC(CO)NC(=O)c1cc(-c2ccc(Cl)cc2)nn(-c2cnn(C)c2)c1=O	743489-274-T-PDC complex spheroid growth	102
CC1COCCN1c1cc(-c2ccnn2C)c2ccnc(-c3ccn[nH]3)c2n1 (stereo not given) + CC(CO)NC(=O)c1cc(-c2ccc(Cl)cc2)nn(-c2cnn(C)c2)c1=O	743489-274-T-PDC complex spheroid growth	92
CC1COCCN1c1cc(-c2ccnn2C)c2ccnc(-c3ccn[nH]3)c2n1 (stereo not given) + Cc1cncc(-c2nc(NCCc3c[nH]c4ccccc34)c3ncn(C(C)C)c3n2)c1	743489-274-T-PDC complex spheroid growth	99.7
CC[C@@]1(O)C(=O)OCc2c1cc1n(c2=O)Cc2cc3c(CN(C)C)c(O)ccc3nc2-1 + Cc1cncc(-c2nc(NCCc3c[nH]c4ccccc34)c3ncn(C(C)C)c3n2)c1	743489-274-T-PDC complex spheroid growth	105

Attention now turns to another entry.
Query: What measured viability, T/C is associated with CC1COCCN1c1cc(-c2ccnn2C)c2ccnc(-c3ccn[nH]3)c2n1 (stereo not given) + Cc1ccccc1N=Nc1ccc(NC(=O)c2ccnn2C)c(C)c1 on 743489-274-T-PDC complex spheroid growth?
Reply: 89.7

###

system: 743489-274-T-PDC complex spheroid growth; test: Anticancer human tumor 743489-274-T-PDC cell line growth inhibition [AhR]; conditions: second compound 1 µM; first compound 10 µM; hits give low values;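 further: spheroids exposed to agents for 7 days before readout; 100% = DMSO vehicle control wells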
Define the label as Y when viability, T/C is strictly less than 50% and as N in all remaining cases.

compound	test-target	label-value
NS(=O)(=O)OCC1CC(n2ccc3c(NC4CCc5ccccc54)ncnc32)CC1O (stereo unspecified) + CC(CO)NC(=O)c1cc(-c2ccc(Cl)cc2)nn(-c2cnn(C)c2)c1=O	743489-274-T-PDC complex spheroid growth	N

Query: Strictly below 50%: is that where viability, T/C of Nc1ccccc1NC(=O)c1ccc(CNC(=O)OCc2cccnc2)cc1 + CC(CO)NC(=O)c1cc(-c2ccc(Cl)cc2)nn(-c2cnn(C)c2)c1=O sits?
Reply: Y

Query: Thanks! And COc1cc(C2c3cc4c(cc3C(OC3OC5COC(C)OC5C(O)C3O)C3COC(=O)C23)OCO4)cc(OC)c1O (stereo unspecified) + Cc1ccccc1N=Nc1ccc(NC(=O)c2ccnn2C)c(C)c1 ?
Reply: N

Query: Thanks! And COc1cccc2c1C(=O)c1c(O)c3c(c(O)c1C2=O)CC(O)(C(=O)CO)CC3OC1CC(N)C(O)C(C)O1 (stereo unspecified) + Cc1cncc(-c2nc(NCCc3c[nH]c4ccccc34)c3ncn(C(C)C)c3n2)c1 ?
Reply: Y

Query: Thanks! And O=C(c1cc(Cc2n[nH]c(=O)c3ccccc23)ccc1F)N1CCN(C(=O)C2CC2)CC1 + Cc1cncc(-c2nc(NCCc3c[nH]c4ccccc34)c3ncn(C(C)C)c3n2)c1 ?
Reply: N

###

tested on: 743489-274-T-PDC complex spheroid growth; assay: Anticancer human tumor 743489-274-T-PDC cell line growth inhibition [AhR]; details: second compound 0.1 µM; first compound 1 µM; hits give low values;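 further: spheroids exposed to agents for 7 days before readout; 100% = DMSO vehicle control wells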
attribute-measured: viability, T/C (%)
The answer is to be given in %; state only the numeric part.

compound	observed-value
CC1COCCN1c1cc(-c2ccnn2C)c2ccnc(-c3ccn[nH]3)c2n1 (centres undefined) + Cc1ccccc1N=Nc1ccc(NC(=O)c2ccnn2C)c(C)c1	78.4
O=C(C=Cc1cccc(S(=O)(=O)Nc2ccccc2)c1)NO + Cc1ccccc1N=Nc1ccc(NC(=O)c2ccnn2C)c(C)c1	67.7
O=C(c1cc(Cc2n[nH]c(=O)c3ccccc23)ccc1F)N1CCN(C(=O)C2CC2)CC1 + CC(CO)NC(=O)c1cc(-c2ccc(Cl)cc2)nn(-c2cnn(C)c2)c1=O	103
Nc1ccn(C2OC(CO)C(O)C2(F)F)c(=O)n1 (centres undefined) + Cc1ccccc1N=Nc1ccc(NC(=O)c2ccnn2C)c(C)c1	63.4
Nc1ncn(C2CC(O)C(CO)O2)c(=O)n1 (centres undefined) + Cc1cncc(-c2nc(NCCc3c[nH]c4ccccc34)c3ncn(C(C)C)c3n2)c1	96
COc1cccc2c1C(=O)c1c(O)c3c(c(O)c1C2=O)CC(O)(C(=O)CO)CC3OC1CC(N)C(O)C(C)O1 (centres undefined) + CC(CO)NC(=O)c1cc(-c2ccc(Cl)cc2)nn(-c2cnn(C)c2)c1=O	96.3
Nc1ccccc1NC(=O)c1ccc(CNC(=O)OCc2cccnc2)cc1 + Cc1ccccc1N=Nc1ccc(NC(=O)c2ccnn2C)c(C)c1	80.2
CC1COCCN1c1cc(-c2ccnn2C)c2ccnc(-c3ccn[nH]3)c2n1 (centres undefined) + Cc1cncc(-c2nc(NCCc3c[nH]c4ccccc34)c3ncn(C(C)C)c3n2)c1	84.5
CC(C)c1c(-c2ccccc2)nc2c(C#N)c[nH]n2c1=O + Cc1ccccc1N=Nc1ccc(NC(=O)c2ccnn2C)c(C)c1	96
Nc1ncn(C2CC(O)C(CO)O2)c(=O)n1 (centres undefined) + CC(CO)NC(=O)c1cc(-c2ccc(Cl)cc2)nn(-c2cnn(C)c2)c1=O	91.4

Attention now turns to another entry.
Query: Looking for the measured viability, T/C of CC1(C)CCC(CN2CCN(c3ccc(C(=O)NS(=O)(=O)c4ccc(NCC5CCOCC5)c([N+](=O)[O-])c4)c(Oc4cnc5[nH]ccc5c4)c3)CC2)=C(c2ccc(Cl)cc2)C1 + Cc1cncc(-c2nc(NCCc3c[nH]c4ccccc34)c3ncn(C(C)C)c3n2)c1 , can you help?
Reply: 106

###

Test system: 743489-274-T-PDC complex spheroid growth
Experiment: Anticancer human tumor 743489-274-T-PDC cell line growth inhibition [AhR];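 further: spheroids exposed to agents for 7 days before readout; 100% = DMSO vehicle control wells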
Conditions: second compound 3.16 µM; first compound 0.3 µM; hits give low values
Excerpt: Multicellular complex tumor spheroid response to aryl hydrocarbon receptor antagonists in combination with a variety of drugs and investigational agents in selected tumor cell lines […] Compounds. […] If the clinical Cmax for an agent had not been determined, the highest concentration tested was 10 microM (Table 1). […]
attribute-measured: viability, T/C (%)
The answer is to be given in %; state only the numeric part.

Some solved entries appear below for comparison.
compound	test-target	viability, T/C / %
Nc1ncn(C2CC(O)C(CO)S2)c(=O)n1 (stereo not drawn) + CC(CO)NC(=O)c1cc(-c2ccc(Cl)cc2)nn(-c2cnn(C)c2)c1=O	743489-274-T-PDC complex spheroid growth	92.9
CCc1c2c(nc3ccc(O)cc13)-c1cc3c(c(=O)n1C2)COC(=O)[C@]3(O)CC + Cc1cncc(-c2nc(NCCc3c[nH]c4ccccc34)c3ncn(C(C)C)c3n2)c1	743489-274-T-PDC complex spheroid growth	73.9

Attention now turns to another entry.
Query: Looking for the measured viability, T/C of O=C(C=Cn1cnc(-c2cc(C(F)(F)F)cc(C(F)(F)F)c2)n1)NNc1cnccn1 + Cc1ccccc1N=Nc1ccc(NC(=O)c2ccnn2C)c(C)c1 , can you help?
Reply: 127

###

tested on: 743489-274-T-PDC complex spheroid growth; test: Anticancer human tumor 743489-274-T-PDC cell line growth inhibition [AhR]; conditions: second compound 0.1 µM; first compound 0.0316 µM; hits give low values;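 further: spheroids exposed to agents for 7 days before readout; 100% = DMSO vehicle control wells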
The entries below come with measured viability, T/C values attached.
The answer is to be given in %; state only the numeric part.

Some solved entries appear below for comparison.
molecule	units-symbol	observed-value
Nc1ccccc1NC(=O)c1ccc(CNC(=O)OCc2cccnc2)cc1 + Cc1ccccc1N=Nc1ccc(NC(=O)c2ccnn2C)c(C)c1	%	101
COc1ccc([C@@H](O)c2cc(-c3ncnc4cc(N5CCOCC5)ccc34)c(F)cc2Cl)nn1 + CC(CO)NC(=O)c1cc(-c2ccc(Cl)cc2)nn(-c2cnn(C)c2)c1=O	%	103
O=C(C=Cc1cccc(S(=O)(=O)Nc2ccccc2)c1)NO + CC(CO)NC(=O)c1cc(-c2ccc(Cl)cc2)nn(-c2cnn(C)c2)c1=O	%	97.6
COc1cc(Nc2ncc3c(n2)-c2ccc(Cl)cc2C(c2c(F)cccc2OC)=NC3)ccc1C(=O)O + Cc1cncc(-c2nc(NCCc3c[nH]c4ccccc34)c3ncn(C(C)C)c3n2)c1	%	94.2
Nc1ccn(C2OC(CO)C(O)C2(F)F)c(=O)n1 (configuration not stated) + Cc1cncc(-c2nc(NCCc3c[nH]c4ccccc34)c3ncn(C(C)C)c3n2)c1	%	83.1

Query: Looking for the measured viability, T/C of COc1cc(C2c3cc4c(cc3C(OC3OC5COC(C)OC5C(O)C3O)C3COC(=O)C23)OCO4)cc(OC)c1O (configuration not stated) + CC(CO)NC(=O)c1cc(-c2ccc(Cl)cc2)nn(-c2cnn(C)c2)c1=O , can you help?
Reply: 107

Query: Thanks! And COc1ccc([C@@H](O)c2cc(-c3ncnc4cc(N5CCOCC5)ccc34)c(F)cc2Cl)nn1 + Cc1cncc(-c2nc(NCCc3c[nH]c4ccccc34)c3ncn(C(C)C)c3n2)c1 ?
Reply: 95.3

Query: Thanks! And COc1cc(C2c3cc4c(cc3C(OC3OC5COC(C)OC5C(O)C3O)C3COC(=O)C23)OCO4)cc(OC)c1O (configuration not stated) + Cc1cncc(-c2nc(NCCc3c[nH]c4ccccc34)c3ncn(C(C)C)c3n2)c1 ?
Reply: 97.7

Query: Thanks! And COc1cccc2c1C(=O)c1c(O)c3c(c(O)c1C2=O)CC(O)(C(=O)CO)CC3OC1CC(N)C(O)C(C)O1 (configuration not stated) + Cc1ccccc1N=Nc1ccc(NC(=O)c2ccnn2C)c(C)c1 ?
Reply: 102

Query: Thanks! And Nc1ccccc1NC(=O)c1ccc(CNC(=O)OCc2cccnc2)cc1 + Cc1cncc(-c2nc(NCCc3c[nH]c4ccccc34)c3ncn(C(C)C)c3n2)c1 ?
Reply: 104

Query: Thanks! And Nc1ncn(C2CC(O)C(CO)O2)c(=O)n1 (configuration not stated) + CC(CO)NC(=O)c1cc(-c2ccc(Cl)cc2)nn(-c2cnn(C)c2)c1=O ?
Reply: 98.4

Query: Thanks! And O=C(C=Cc1cccc(S(=O)(=O)Nc2ccccc2)c1)NO + Cc1ccccc1N=Nc1ccc(NC(=O)c2ccnn2C)c(C)c1 ?
Reply: 78.6
